MEASURED_ON: HCV polymerase (NS5B) type 1a (Hepatitis C virus genotype 1a)
Construct: made in house; host or cells: Escherichia coli (by the 'similar method' of the 1b enzyme)
TEST_SUMMARY: Assay of enzyme (HCV polymerase) inhibitory activity, type 1a enzyme
Assay type: biochemical, HCV type 1a (cloned from the blood of patients)
RUN_PARAMETERS: HCV polymerase inhibitory activity (IC50), 1a, type 1a enzyme 1.5 μg/ml, 25° C., 60 min
Description: The evaluation of the HCV polymerase inhibitory activity of the compound of the present invention is explained in the following. This polymerase is an enzyme coded for by the non-structural protein region called NS5B on the genome RNA of HCV. i) Preparation of Enzyme (HCV Polymerase) […] The HCV polymerase inhibitory activity (IC50) of the compound of the present invention was calculated from the values of radioactivity of the enzyme reaction with and without the test substance. […]
PROPERTY_NAME: IC50

// compound CCC(F)(F)c1ccc(CNC(=O)[C@H]2CN(c3cnc(CO)cn3)CCN2S(=O)(=O)c2ccc(OC(F)(F)F)cc2)cc1 [Example 560] , assay HCV polymerase (NS5B) type 1a (Hepatitis C virus genotype 1a), IC50 value: < 0.1 µM

// compound CCCc1ccc(CNC(=O)[C@H]2CN(c3cc(Cl)ncn3)CCN2S(=O)(=O)c2ccc(OC(F)(F)F)cc2)cc1 [Example 571] , assay HCV polymerase (NS5B) type 1a (Hepatitis C virus genotype 1a), IC50 value: < 0.1 µM

// compound CC(=O)N1CCN(S(=O)(=O)c2ccc(C(C)C)cc2)[C@@H](C(=O)NCc2ccc(C(C)C)cc2C)C1 [Example 291] , assay HCV polymerase (NS5B) type 1a (Hepatitis C virus genotype 1a), IC50 value: < 0.1 µM

// compound CCCc1ccc(CNC(=O)[C@H]2CN(c3cnc(NS(C)(=O)=O)cn3)CCN2S(=O)(=O)c2ccc(OC(F)(F)F)cc2)cc1 [Example 544] , assay HCV polymerase (NS5B) type 1a (Hepatitis C virus genotype 1a), IC50 value: < 0.1 µM

// compound CC(C)(C)c1ccc(CNC(=O)[C@H]2CN(c3cnc(CN4CCCC4)cn3)CCN2S(=O)(=O)c2ccc(OC(F)(F)F)cc2)cc1 [Example 558] , assay HCV polymerase (NS5B) type 1a (Hepatitis C virus genotype 1a), IC50 value: 0.1 to 1 µM

// compound CCCc1ccc(CNC(=O)[C@H]2CN(C(=O)Cn3nnc(CC(=O)O)n3)CCN2S(=O)(=O)c2ccc(OC(F)(F)F)cc2)cc1 [Example 465] , assay HCV polymerase (NS5B) type 1a (Hepatitis C virus genotype 1a), IC50 value: < 0.1 µM

* * *

Would you mind telling me the reported IC50 of each entry?
MEASURED_ON: HCV polymerase (NS5B) type 1a (Hepatitis C virus genotype 1a)
Construct: made in house; host or cells: Escherichia coli (by the 'similar method' of the 1b enzyme)
TEST_SUMMARY: Assay of enzyme (HCV polymerase) inhibitory activity, type 1a enzyme
Assay type: biochemical, HCV type 1a (cloned from the blood of patients)
RUN_PARAMETERS: HCV polymerase inhibitory activity (IC50), 1a, type 1a enzyme 1.5 μg/ml, 25° C., 60 min

The molecule identified as CCCc1ccc(CNC(=O)[C@H]2CN(c3nc(C(F)(F)F)c(C(=O)O)s3)CCN2S(=O)(=O)c2ccc(OC(F)(F)F)cc2)cc1 [Example 453] registered its IC50 at < 100 nM

The molecule identified as CC(C)c1ccc(S(=O)(=O)N2CCN(C(N)=O)CC2C(=O)NCc2ccc(C(F)(F)F)cc2)cc1 (stereo not shown) [Example 350] registered its IC50 at > 1000 nM

The molecule identified as CC(=O)N1CCN(S(=O)(=O)c2ccc(OC(F)(F)F)cc2)[C@@H](C(=O)NCc2csc(-c3cccs3)n2)C1 [Example 599] registered its IC50 at 100 to 1000 nM

The molecule identified as COc1ccc(S(=O)(=O)N2CCN(C(C)=O)C[C@@H]2C(=O)NCc2ccc(C(C)C)cc2)cc1C(C)(C)C [Example 240] registered its IC50 at 100 to 1000 nM

The molecule identified as CN(C)c1ccc(CNC(=O)[C@H]2CN(c3cnc(C(=O)O)cn3)CCN2S(=O)(=O)c2ccc(OC(F)(F)F)cc2)cn1 [Example 407] registered its IC50 at 100 to 1000 nM

The molecule identified as COc1ccc(S(=O)(=O)N2CCN(C(C)=O)CC2C(=O)NCc2ccc(C(F)(F)F)cc2)cc1OC (stereo not shown) [Example 136] registered its IC50 at > 1000 nM

The molecule identified as CCc1ccc(S(=O)(=O)N2CCN(c3cnc(C(=O)O)cn3)C[C@@H]2C(=O)NCc2ccc(C(C)(C)C)cc2)cc1 [Example 524] registered its IC50 at < 100 nM

The molecule identified as CN(C)c1ccc(CNC(=O)C2CN(C(=O)CNC(=O)OC(C)(C)C)CCN2S(=O)(=O)c2ccc(I)cc2)cc1 (stereo not shown) [Example 86] registered its IC50 at > 1000 nM

The molecule identified as CCCc1ccc(S(=O)(=O)N2CCN(C(=O)Nc3ccncc3)C[C@@H]2C(=O)NCc2ccc(C(C)C)cc2)cc1 [Example 295] registered its IC50 at < 100 nM

The molecule identified as CC(C)c1ccc(CNC(=O)[C@H]2CN(c3cc(C(=O)O)[nH]n3)CCN2S(=O)(=O)c2ccc(C(F)(F)F)cc2)cc1 [Example 426] registered its IC50 at > 1000 nM

The molecule identified as COc1cccc(CC(=O)N2CCN(S(=O)(=O)c3ccc(C(F)(F)F)cc3)[C@@H](C(=O)NCc3ccc(C(C)C)cc3)C2)c1 [Example 268] registered its IC50 at > 1000 nM

The molecule identified as COc1ccccc1NC(=O)N1CCN(S(=O)(=O)c2ccc(C(F)(F)F)cc2)[C@@H](C(=O)NCc2ccc(C(C)C)cc2)C1 [Example 272] registered its IC50 at > 1000 nM

The molecule identified as Cc1nc(N2CCN(S(=O)(=O)c3ccc(OC(F)(F)F)cc3)[C@@H](C(=O)NCc3ccc(C(C)C)cc3)C2)sc1C(=O)O [Example 322] registered its IC50 at < 100 nM

* * *

MEASURED_ON: HCV polymerase (NS5B) type 1a (Hepatitis C virus genotype 1a, UniProt P26664)
Construct: made in house; host or cells: Escherichia coli (by the 'similar method' of the 1b enzyme)
TEST_SUMMARY: Assay of enzyme (HCV polymerase) inhibitory activity, type 1a enzyme
Type: biochemical, HCV type 1a (cloned from the blood of patients)
RUN_PARAMETERS: HCV polymerase inhibitory activity (IC50), 1a, type 1a enzyme 1.5 μg/ml, 25° C., 60 min
pIC50: −log10 of the molar value.
Would you mind telling me the reported pIC50 of each entry?

// molecule CC(C)c1ccc(CNC(=O)[C@H]2CN(C(=O)CCCCCC(=O)O)CCN2S(=O)(=O)c2ccc(C(F)(F)F)cc2)cc1 [Example 317] , assay HCV polymerase (NS5B) type 1a (Hepatitis C virus genotype 1a, UniProt P26664), pIC50 value: 6.00 to 7.00

// molecule CC(=O)N1CCN(S(=O)(=O)c2ccc(OC(F)(F)F)cc2)[C@@H](C(=O)NCc2ccc(O)cc2)C1 [Example 613] , assay HCV polymerase (NS5B) type 1a (Hepatitis C virus genotype 1a, UniProt P26664), pIC50 value: < 6.00

// molecule CCC(F)(F)c1ccc(CNC(=O)[C@H]2CN(C(=O)Cn3nnc(C(C)C)n3)CCN2S(=O)(=O)c2ccc(OC(F)(F)F)cc2)cc1 [Example 542] , assay HCV polymerase (NS5B) type 1a (Hepatitis C virus genotype 1a, UniProt P26664), pIC50 value: > 7.00

// molecule CC(C)c1ccc(CNC(=O)[C@H]2CN(C(=O)Cn3ccnc3)CCN2S(=O)(=O)c2ccc(C(F)(F)F)cc2)cc1 [Example 219] , assay HCV polymerase (NS5B) type 1a (Hepatitis C virus genotype 1a, UniProt P26664), pIC50 value: > 7.00

// molecule CCCc1ccc(CNC(=O)[C@H]2CN(c3cnc4[nH]c(=O)[nH]c4n3)CCN2S(=O)(=O)c2ccc(OC(F)(F)F)cc2)cc1 [Example 628] , assay HCV polymerase (NS5B) type 1a (Hepatitis C virus genotype 1a, UniProt P26664), pIC50 value: 6.00 to 7.00

// molecule CC(C)c1ccc(CNC(=O)[C@H]2CN(c3cnc(C(=O)O)cn3)CCN2S(=O)(=O)c2ccc(OC(F)(F)F)cc2)cc1 [Example 385] , assay HCV polymerase (NS5B) type 1a (Hepatitis C virus genotype 1a, UniProt P26664), pIC50 value: > 7.00

// molecule CC(C)c1ccc(CNC(=O)[C@H]2CN(C(=O)Nc3ccncc3)CCN2S(=O)(=O)c2ccc(OC(F)(F)F)cc2)cc1 [Example 318] , assay HCV polymerase (NS5B) type 1a (Hepatitis C virus genotype 1a, UniProt P26664), pIC50 value: > 7.00

// molecule CC(C)c1ccc(CNC(=O)[C@H]2CN(c3ncc(C(=O)O)c(O)n3)CCN2S(=O)(=O)c2ccc(C(F)(F)F)cc2)cc1 [Example 357] , assay HCV polymerase (NS5B) type 1a (Hepatitis C virus genotype 1a, UniProt P26664), pIC50 value: < 6.00

// molecule CC(=O)N1CCN(S(=O)(=O)c2ccc(Cl)cc2)C(C(=O)NCc2ccc(C(F)(F)F)cc2)C1 (centres unmarked) [Example 20] , assay HCV polymerase (NS5B) type 1a (Hepatitis C virus genotype 1a, UniProt P26664), pIC50 value: < 6.00

// molecule CC(=O)N1CCN(S(=O)(=O)c2ccc(-c3cc(C(F)(F)F)on3)s2)C(C(=O)NCc2ccc(C(F)(F)F)cc2)C1 (centres unmarked) [Example 43] , assay HCV polymerase (NS5B) type 1a (Hepatitis C virus genotype 1a, UniProt P26664), pIC50 value: < 6.00

// molecule CC(=O)N1CCN(S(=O)(=O)c2ccc(C(=O)O)cc2)C(C(=O)NCc2ccc(C(F)(F)F)cc2)C1 (centres unmarked) [Example 107] , assay HCV polymerase (NS5B) type 1a (Hepatitis C virus genotype 1a, UniProt P26664), pIC50 value: < 6.00

// molecule CC(=O)N1CCN(S(=O)(=O)c2ccc(C(C)C)cc2)[C@@H](C(=O)NCc2ccc(C3CC3)cc2C)C1 [Example 323] , assay HCV polymerase (NS5B) type 1a (Hepatitis C virus genotype 1a, UniProt P26664), pIC50 value: > 7.00

// molecule CC(C)c1ccc(CNC(=O)[C@H]2CN(CCc3ccncc3)CCN2S(=O)(=O)c2ccc(C(F)(F)F)cc2)cc1 [Example 304] , assay HCV polymerase (NS5B) type 1a (Hepatitis C virus genotype 1a, UniProt P26664), pIC50 value: 6.00 to 7.00

// molecule CC(=O)N1CCN(S(=O)(=O)c2ccc(C#N)cc2)C(C(=O)NCc2ccc(C(F)(F)F)cc2)C1 (centres unmarked) [Example 46] , assay HCV polymerase (NS5B) type 1a (Hepatitis C virus genotype 1a, UniProt P26664), pIC50 value: < 6.00
